Sourced from PubChem BioAssay (NCI)

- System: BT-549 breast
- METHOD NOTES: NCI-60 one-dose screen, 48 h (100 = growth as untreated, 0 = no growth, -100 = all killed)
- CONDITION LABEL: 10 µM unless noted
This is part of a sample that, as a whole, favours compounds with a hit. Of some 83,000 tested, about 20% had one in any assay.
growth strictly under 70% means Satisfied; at 70% or over means Not satisfied.

COMPOUND	SYSTEM TESTED	CAT
Cc1ccc(-c2csc(N/N=C/c3nc4ccccc4n3C3CC3)n2)cc1	BT-549 breast	Not satisfied
COc1cc(/C=C/C(=O)c2ccc(NC(=O)COc3cccc4cccnc34)cc2)cc(OC)c1OC	BT-549 breast	Not satisfied
CCOC(=O)/C=c1\sc2n(c1=O)C1C(NN=2)N(CC)C(=O)N1CC (stereo unspecified)	BT-549 breast	Satisfied
C#C[C@]1(O)CC[C@H]2[C@@H]3CC=C4c5sc(Nc6ccc(OC)nc6)nc5CC[C@]4(C)[C@H]3CC[C@@]21C	BT-549 breast	Satisfied
CC(=O)C1=NN(c2ccc(Cl)cc2)C(=O)CN1C	BT-549 breast	Not satisfied
O=C(c1ccc(O)cc1)[C@@H]1[C@@H]2CCCN2[C@@]2(C(=O)N(C(=O)c3ccc(F)cc3)c3ccccc32)[C@H]1c1ccc(F)cc1	BT-549 breast	Not satisfied
O=S(=O)(Nc1ccc2c(c1)OC(F)(F)O2)c1ccc(-c2cnc(C3CC3)o2)cc1	BT-549 breast	Satisfied
Cn1nc(Nc2ccccc2)c(C(=O)NN)c1N	BT-549 breast	Not satisfied
Nc1nc(N)c2c(n1)NC(c1ccccc1)CC(c1ccc(Nc3nc(NCCO)nc(Nc4ccc(Cl)cc4)n3)cc1)=N2 (stereo unspecified)	BT-549 breast	Not satisfied
CC1OC(O[C@@H]2C(O)C(CO)OC(O[C@H]3COC(O[C@H]4CC[C@]5(C)[C@H]6CC[C@]78OC[C@@]9(CC[C@](C)(C=O)C[C@H]97)[C@H](O)C[C@@]8(C)[C@]6(C)CC[C@H]5C4(C)C)[C@@H](OC4OC(CO)[C@@H](O)[C@@H](O)[C@@H]4O)[C@@H]3O)[C@H]2OC2OC[C@@H](O)[C@@H](O)[C@@H]2O)[C@@H](O)[C@@H](O)[C@H]1O (stereo partly specified)	BT-549 breast	Satisfied
CCOC(=O)c1c(NC(=O)c2cccc(C(F)(F)F)c2)sc2c(CN3CCN(C)CC3)c(O)ccc12	BT-549 breast	Not satisfied
CCC(C)[C@H]1OC(=O)[C@H](C(C)C)N(C)C(=O)[C@@H](C(C)C)OC(=O)[C@H](C(C)C)N(C)C(=O)[C@@H](C(C)CC)OC(=O)[C@H](C(C)C)N(C)C1=O (stereo partly specified)	BT-549 breast	Satisfied
O=C1CC2(CCOCC2)Oc2ncccc21	BT-549 breast	Not satisfied
CS(=O)(=O)c1ccc2c(c1)c1c(n2S(=O)(=O)c2ccc(Cl)cc2)CCCC1	BT-549 breast	Satisfied

---

- Test system: PC-3 prostate
- METHOD NOTES: NCI-60 one-dose screen, 48 h
- CONDITION LABEL: 10 µM unless noted
About 83,000 compounds went through this panel and 20% of them were active in at least one assay; those are over-represented in the sample as a whole. Activity calls are given as the source filed them. The calls were made as follows: active = growth percent below 10; inactive = the rest.
Classes used: 1 (yes) for active, 0 (no) for inactive

COMPOUND	CAT
COC[C@@]1(C)CC[C@]2(C)CC[C@]3(C)C(=CC[C@@H]4[C@@]5(C)CCCNC(C)(C)[C@@H]5CC[C@]43C)C2C1 (stereo partly specified)	0 (no)
Cc1ccc(NC(=O)c2cc(/C=C/C(=O)NO)cc(C(F)(F)F)c2)cc1Nc1nccc(-c2cccnc2)n1	0 (no)
O=C(Nc1ccc(-c2nc(-c3cccc(O)c3)c(-c3ccnc(Br)c3)[nH]2)cc1)c1ccccc1	1 (yes)
COc1ccc(NC(=O)Cn2cc(CN3C(=O)c4ccc([N+](=O)[O-])cc4C3=O)nn2)cc1	0 (no)
Cn1ccnc1C(=O)/C=C/c1ccc(C(=O)Nc2ccc(NC(=O)CCNC(=O)c3csc(Br)n3)cc2)cc1	0 (no)
CS(=O)(=O)c1ccc(-c2nn(-c3ccccc3)cc2/C=N/NC(=O)c2ccncc2)cc1	0 (no)
Cc1ccc(-c2nnc3sc(C4=Cc5ccccc5OC=C4)nn23)cc1	0 (no)
O=C(c1ccc(O)cc1)[C@@H]1[C@@H]2CCCN2[C@@]2(C(=O)N(C(=O)c3ccc(F)cc3)c3ccccc32)[C@H]1c1ccc(F)cc1	0 (no)
C/C(=N\NC(=O)CSc1nc2sc3c(c2c(=O)n1-c1ccccc1)CCC(C)C3)c1ccc(Cl)cc1 (stereo unspecified)	0 (no)
Cc1ccc(NC(=O)c2ccc(CN3CCN(C)CC3)c(C(F)(F)F)c2)cc1Oc1ccc(-c2[nH]nc3ncnc(N)c23)cc1	0 (no)
O=c1c2c(O)cccc2oc2c3c(cc(O)c12)O[C@H]1OC=C[C@@H]31	0 (no)
Fc1ccccc1/C=C(/C1=NCCN1)n1cnc2ccccc21	0 (no)
C[C@@H]1C[C@H]2C(=O)OCC(NC(=O)[C@H](Cc3cc(F)cc(F)c3)NC(=O)Nc3ccc(Cl)cc3F)C(=O)N3CCC[C@H]3C(=O)N3CCCC[C@H]3C(=O)N[C@@H](C)C(=O)N2C1 (stereo partly specified)	0 (no)
COc1cc(C2CC(c3ccc(Nc4nc(NCCO)nc(Nc5ccc(Cl)cc5)n4)cc3)=Nc3c(N)nc(N)nc3N2)cc(OC)c1OC (stereo unspecified)	0 (no)
CC1(C)CC[C@]2(C(=O)N3CCCNCC3)CC[C@]3(C)C(=CC[C@@H]4[C@@]5(C)CCC(=O)C(C)(C)[C@@H]5CC[C@]43C)[C@H]2C1	0 (no)
COc1ccc(/C=N/Nc2nc(Nc3ccccc3)nc(Nc3ccc(S(N)(=O)=O)cc3)n2)cc1	0 (no)

---

- System: U251 CNS
- METHOD NOTES: NCI-60 one-dose screen, 48 h (100 = growth as untreated, 0 = no growth, -100 = all killed)
- CONDITION LABEL: 10 µM unless noted
About 83,000 compounds went through this panel and 20% of them were active in at least one assay; those are over-represented in the sample as a whole.
Form field: growth (one value per entry).
REPORTED PROPERTY: growth (%)

MOLECULE	SYSTEM TESTED	REPORTED PROPERTY	REPORTED
CC(=O)c1ccc(NC(=O)COc2ccc(C3SCC(=O)N3c3ccc(Br)cc3)cc2)cc1 (stereo not given)	U251 CNS	growth	100
CCN(CC)CCN1C(=O)c2c(c3c4cccnc4[nH]c3c3ccc4ccccc4c23)C1=O	U251 CNS	growth	63.5
CCN1C(=O)N(CC)C2C1NN=C1SC(c3ccccc3)=CC(=O)N12 (stereo not given)	U251 CNS	growth	14.5
Clc1ccc(-c2csc(Nc3cccc(Nc4csc(-c5ccc(Cl)cc5)n4)c3)n2)cc1	U251 CNS	growth	85.4
N#C/C(=C\c1ccc(N2CCCCC2)cc1)C(=O)Nc1sc2c(c1C#N)CCC2	U251 CNS	growth	96.8
Cc1ccc(NC(=O)c2ccc(CN3CCN(C)CC3)c(C(F)(F)F)c2)cc1Oc1ccc(-c2[nH]nc3ncnc(N)c23)cc1	U251 CNS	growth	-27.7
NC(=O)C(=Cc1ccc(Cl)cc1)C(N)=O	U251 CNS	growth	68.7
O=C(O)c1ccc(-n2cc(CNc3ccc(Cl)cc3)c(-c3ccc(F)cc3)n2)cc1	U251 CNS	growth	90.4
COc1cc(CNC(=O)/C=C/c2ccccc2)ccc1OCC(=O)NO	U251 CNS	growth	101
COc1cc(/C=N/n2cnc3oc(-c4ccccc4)cc3c2=N)cc(CN2CCOCC2)c1O	U251 CNS	growth	53.7

---

- System: MOLT-4 leukemia
- METHOD NOTES: NCI-60 one-dose screen, 48 h (100 = growth as untreated, 0 = no growth, -100 = all killed)
- CONDITION LABEL: 10 µM unless noted
This is part of a sample that, as a whole, favours compounds with a hit. Of some 83,000 tested, about 20% had one in any assay.
Could you label it condition met if measured growth is 40% or higher, and condition not met otherwise?

SMILES NOTATION	CAT
CCOC(=O)Nc1ccc(-c2nc(-c3cccc(O)c3)c(-c3ccnc(Br)c3)[nH]2)cc1	condition not met
O=S(=O)(Nc1cc(Cl)cc(Cl)c1)c1ccc(-c2cnc(C3CC3)o2)cc1	condition not met
Nc1nc(-c2cccc([N+](=O)[O-])c2)c(N=Nc2cccc(Cl)c2)s1	condition not met
Cn1nc(Nc2ccccc2)c(C(=O)NN)c1N	condition met
CCc1ccc(NC(=O)N[C@@H](Cc2cccc(C)c2)C(=O)N[C@@H]2C(=O)N3CCC[C@H]3C(=O)N3CCCC[C@H]3C(=O)N[C@@H](CO)C(=O)N3C[C@H](C)C[C@H]3C(=O)O[C@H]2C)c(F)c1	condition met
O=C(/C=C1\C=CN(CCCCCCF)c2ccccc21)n1ccc2ccccc21	condition met
C=CCn1c(SCC(=O)c2ccc(OC)cc2)nnc1-c1ccc(OC)cc1	condition met
O=c1c2ccccc2nc(COc2ccccc2)n1/N=C/C=C/c1ccccc1	condition met
COc1ccc(-c2ccc3c4c(cccc24)C(=O)N(N2C(=O)c4cccc5cccc(c45)C2=O)C3=O)cc1	condition met
